Can you tell me normalized growth for the items I'm about to list?
- Test name: chemical genetic growth profiling, strain panel (AID 1159580);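 note: tested at 20 µM; growth read once vehicle control cultures reached saturation at 30 °C; 1 = growth at the plate median or of vehicle wells; lower values mean less growth of the strain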
- Particulars: S. cerevisiae deletion strains, growth OD, locus YLR370C, strain arc18, active compounds read low
Among all 5,500 compounds or so, about 2,000 (36%) were called active. About 18% were inconclusive and are not listed. Some of the results follow.
Numbers only.

Recorded normalized growth, per entry:
- Compound: "CC(C)(Oc1ccc(C2CC2(Cl)Cl)cc1)C(=O)O (configuration not stated)"
  normalized growth: 1
- Compound: "CC(C)NNC(=O)c1ccncc1"
  normalized growth: 1.01
- Compound: "O=C(O)CN1C(=O)c2cccc3cccc(c23)C1=O"
  normalized growth: 0.973
- Compound: "O=c1[nH]oc2c1CCNC2"
  normalized growth: 1
- Compound: "NC(=O)c1cccc(N)c1"
  normalized growth: 0.941
- Compound: "C=C1C(=O)OC2CC1C(OC(C)=O)C/C(C)=C/CC/C(C)=C/CC[C@]2(C)O (some centres not stated)"
  normalized growth: 0.998

Could you now consider this next compound?
Param item = COc1cc2c(cc1OC)C1Cc3ccc(OC)c(OC)c3CN1CC2 (configuration not stated) ; retrieve measured normalized growth.
0.971

---

What normalized growth was measured for each of the following?
- Test name: chemical genetic growth profiling, strain panel (AID 1159580);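 note: tested at 20 µM; growth read once vehicle control cultures reached saturation at 30 °C; 1 = growth at the plate median or of vehicle wells; lower values mean less growth of the strain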
- Particulars: S. cerevisiae deletion strains, growth OD, locus YNL322C, strain KRE1 (second series), active compounds read low
About 2,000 (36%) of roughly 5,500 compounds were called active. Another 18% or so got no clear call; they are omitted. This is one part of the list.

- Molecule: "Cc1cccc(C)c1NC1=NCCCS1"
  Recorded measurement: "1.01 (inactive)"
- Molecule: "CC(=O)OCC(OC(C)=O)C(OC(C)=O)C(OC(C)=O)C(OC(C)=O)C(COC(C)=O)OC(C)=O (stereo not drawn)"
  Recorded measurement: "0.993 (inactive)"
- Molecule: "CC(=O)OCC[C@H](C)CCC=C(C)C"
  Recorded measurement: "0.974 (inactive)"
- Molecule: "CCC(C)(C)C(=O)O[C@H]1C[C@@H](C)C=C2C=C[C@H](C)[C@H](CC[C@@H]3C[C@@H](O)CC(=O)O3)[C@H]21"
  Recorded measurement: "1.07 (inactive)"
- Molecule: "COc1cc2c(cc1OC)C1Cc3ccc(OC)c(OC)c3CN1CC2 (stereo not drawn)"
  Recorded measurement: "0.948 (inactive)"

Quick request: normalized growth for each listed item, please.
1. Cc1cc(-c2ccccc2)nnc1NCCN1CCOCC1
2. CC[C@H](C)C(=O)O[C@H]1C[C@@H](C)C=C2C=C[C@H](C)[C@H](CC[C@@H]3C[C@@H](O)CC(=O)O3)[C@H]21
3. CC[C@H](C)C(=O)O[C@H]1CCC=C2C=C[C@H](C)C(CCC3C[C@@H](O)CC(=O)O3)[C@H]21 (stereo partly drawn)
4. N[C@@H](CC(=O)N1CCn2c(nnc2C(F)(F)F)C1)Cc1cc(F)c(F)cc1F

["0.981 (inactive)", "1.02 (inactive)", "1.01 (inactive)", "0.975 (inactive)"]

---

- Test name: chemical genetic growth profiling, strain panel (AID 1159580);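 note: tested at 20 µM; growth read once vehicle control cultures reached saturation at 30 °C; 1 = growth at the plate median or of vehicle wells; lower values mean less growth of the strain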
- Particulars: S. cerevisiae deletion strains, growth OD, locus YLR342W, strain FKS1 (second series), active compounds read low
About 2,000 (36%) of roughly 5,500 compounds were called active. Another 18% or so got no clear call; they are omitted. The list shows a part of the results.
Attribute measured: normalized growth
Answers are plain numbers.

- Molecule: "O=C1[C@H](CCC(O)c2ccc(F)cc2)[C@@H](c2ccc(O)cc2)N1c1ccc(F)cc1 (stereo not given in full)"
  normalized growth: 1.01

# batch size: 5; output normalized growth per entry
1. NS(=O)(=O)c1cc2c(cc1Cl)NC(C(Cl)Cl)NS2(=O)=O (stereo not given)
2. CC[C@H](C)C(=O)O[C@H]1CCC=C2C=C[C@H](C)C(CCC3C[C@@H](O)CC(=O)O3)[C@H]21 (stereo not given in full)
3. CC1C[C@H]2CC(=O)[C@H]3CCCN4CCC[C@H]2[C@]34C1 (stereo not given in full)
4. C=C1C(C)C2C(Cc3ccccc3)NC(=O)C23OC(=O)/C=C/C(=O)CCCC(C)C/C=C/C3C1O (stereo not given)
5. O=C(Cn1ccnc1[N+](=O)[O-])NCCO

1.02
1.03
0.993
0.805
1.08
